I'd be grateful if you could share measured Stability of Plant-Derived Cannabinoid Compounds in AB Red for these entries.
# methodSummary: Stability of cannabinoid compounds and Vitamin E components in Beverage 2 (AB Red) by LCMSMS
# Assay type: physicochemical
# experimentalContext: stored at 8° C., 0 days
Give bare numbers, in µg/mL.

{"columns": ["compound", "dataValue"],
 "data": [
  ["CCCCCc1cc(O)c2c(c1)OC(C)(C)c1ccc(C)cc1-2", 2.81],
  ["CCCc1cc(O)c2c(c1)OC(C)(C)[C@@H]1CCC(C)=C[C@@H]21 [THCV, delta-9-tetrahydrocannabivarin]", 3.22]
]}

Report Stability of Plant-Derived Cannabinoid Compounds in AB Red for every entry below.
1. CCCCCc1cc(O)c2c(c1)OC(C)(C)[C@@H]1CCC(C)=C[C@@H]21 [D9 THC, delta-9-tetrahydrocannabinol, reference compound]
2. CCCCCc1cc(O)c(C/C=C(\C)CCC=C(C)C)c(O)c1
3. CCCCCc1cc2c(c(O)c1C(=O)O)[C@@H]1C=C(C)CC[C@H]1C(C)(C)O2 [D9 THCA, delta-9-tetrahydrocannabinolic acid]

[A]
[12.9, 4.75, 1.35]
